Each recorded value in this set is attributed to the Human Domainome abundance scans (Beltran et al. 2025).

Would you kindly list abundance fitness for each of these variants?
B1: Histone-lysine N-methyltransferase SETD2, residues 2382 to 2430; numbered along this chain, Q9BYW2 (parent)
chain: SPPKPKTIVLPPNWKTARDPEGKIYYYHVITRQTQWDPPTWESPGDDAS

Variants of: B1
Test: abundance fitness (aPCA) (normalised: wild type 0, dead -1); higher = more abundant; growth selection in yeast, the domain comes from the species named
Conditions: Homo sapiens

Consider the worked cases shown below.
| mutation | abundance fitness |
| --- | --- |
| T16L | 0.049 |
| I8V | 0.201 |
| P39R | -0.96 |
| Y25L | -0.358 |

Batch of 4 variants: report abundance fitness for each.
1. P44F
2. E21V
3. E42G
4. T40E

1. -0.654
2. -0.275
3. -0.053
4. 0.12

Batch of 3 variants: report abundance fitness for each.
1. W41I
2. A17T
3. K23H

[0.05, -0.217, -0.686]
